test: Inhibition of porcine pancreatic elastase using N-succinyl-Ala-Ala-Ala-p-nitroanilide as substrate preincubated with enzyme for 15 mins followed by substrate addition and measured for 30 mins; parameters: species or system Sus scrofa
pIC50: −log10 of the molar value. Starred links: 1 amine or outer side, 2 acyl side, 3 side chain; linkers in the order of their positions; H or OH if unused. Positions of bridges follow the written chain, without caps; N, C: chain ends. Non-standard residues stand in square brackets, D forms with d. Residues, ends and D or L forms follow the SMILES beside them. X2 = O=C(/C=C/c1csc([C@H](Cc2ccc(O)cc2)N[*:1])n1)[*:2]; X1 = CC[C@H](C)[C@H](N[*:1])C(=O)C(=O)[*:2]; Cya = N[C@@H](CS(=O)(=O)O)C(=O)O; Nva = CCC[C@H](N)C(=O)O; Abu = CC[C@H](N)C(=O)O; Dap = NC[C@H](N)C(=O)O
Measured Property: pIC50

[[record]]
molecule = "CC[C@@H]1NC(=O)[C@@H](NC(=O)[C@H](C)N)CNC(=O)[C@H](CS(=O)(=O)O)NC(=O)/C=C/c2csc(n2)[C@H](Cc2ccc(O)cc2)NC(=O)C(=O)[C@H]([C@@H](C)CC)NC1=O (H-A[Dap][Abu][X1][X2][Cya]; lactam 2-C)"
measured_property = "pIC50"
result_value = 7.80

[[record]]
molecule = "CCC[C@@H]1NC(=O)[C@@H](NC(=O)[C@H](C)N)CNC(=O)[C@H](CS(=O)(=O)O)NC(=O)/C=C/c2csc(n2)[C@H](Cc2ccc(O)cc2)NC(=O)C(=O)[C@H]([C@@H](C)CC)NC1=O (H-A[Dap][Nva][X1][X2][Cya]; lactam 2-C)"
measured_property = "pIC50"
result_value = 7.70

[[record]]
molecule = "CC[C@@H]1NC(=O)[C@@H](N2C(=O)N[C@@H](C)C2=O)CNC(=O)[C@H](CS(=O)(=O)O)NC(=O)/C=C/c2csc(n2)[C@H](Cc2ccc(O)cc2)NC(=O)C(=O)[C@H]([C@@H](C)CC)NC1=O"
measured_property = "pIC50"
result_value = 7.21

[[record]]
molecule = "CCC[C@@H]1NC(=O)[C@@H](N2C(=O)N[C@@H](C)C2=O)CNC(=O)[C@H](CS(=O)(=O)O)NC(=O)/C=C/c2csc(n2)[C@H](Cc2ccc(O)cc2)NC(=O)C(=O)[C@H]([C@@H](C)CC)NC1=O"
measured_property = "pIC50"
result_value = 7.46

[[record]]
molecule = "CC[C@H](C)[C@@H]1NC(=O)[C@H](CC(C)C)NC(=O)[C@@H](N2C(=O)N[C@@H](C)C2=O)CNC(=O)[C@H](CS(=O)(=O)O)NC(=O)/C=C/c2csc(n2)[C@H](Cc2ccc(O)cc2)NC(=O)C1=O"
measured_property = "pIC50"
result_value = 7.75

[[record]]
molecule = "O=S(=O)(F)Cc1ccccc1 [PHENYLMETHYLSULFONYLFLUORIDE]"
measured_property = "pIC50"
result_value = 6.86

